Source of measurements: patent US20220048967A1

- TARGET_OF_ASSAY: Pro-Link-tagged Human GLP-1R (human, UniProt P43220 24-463); also: reference of the scale not given here
- PROTOCOL: cell-based or functional assay
Some binders, each annotated with its measured hGLP1R B-Arrestin2 % Top.
Kindly answer with a numeric value in %, unit omitted.

XXEGTXTSDYSIXLDKKAQXEFIEYLIAGGPSSGAPPPS (D-Tyr1, Aib2, αMeF6, αMeL13, K17 conjugated to (2-[2-(2-Amino-ethoxy)-ethoxy]-acetyl)2-(γ-Glu)-CO-(CH2)18-CO2H, Aib20, C-terminal amide (NH2)) [Example 345]    74.7

Input line: Give the measured hGLP1R B-Arrestin2 % Top for XXEGTFTSDYSIXLDXKAQXAFIEXLIAGGPSSGAPPPS (D-Tyr1, Aib2, αMeL13, Orn16, K17 conjugated to (2-[2-(2-Amino-ethoxy)-ethoxy]-acetyl)2-(γ-Glu)-CO-(CH2)16-CO2H, Aib20, αMeY25, C-terminal amide (NH2)) [Example 377]
Output line: 16.7

Input line: Please give measured hGLP1R B-Arrestin2 % Top of the following entry: YXEGTXTSDXSIXLDXKAQXEFIXXLIEGGPSSGAPPPS (Aib2, αMeF(2F)6, 4Pal10, αMeL13, Orn16, K17 conjugated to (2-[2-(2-Amino-ethoxy)-ethoxy]-acetyl)2-(γ-Glu)-CO-(CH2)16-CO2H, Aib20, D-Glu24, αMeY25, C-terminal amide (NH2)) [Example 4]
Output line: 92.4

Input line: Annotate the binder XXEGTFTSDYSIXLDKKAQXAFVXYLIAGGPSSGAPPPS (D-Tyr1, Aib2, αMeL13, K17 conjugated to (2-[2-(2-Amino-ethoxy)-ethoxy]-acetyl)2-(γ-Glu)-CO-(CH2)18-CO2H, Aib20, D-Glu24, C-terminal amide (NH2)) [Example 361] with its measured hGLP1R B-Arrestin2 % Top.
Output line: 20.2

Input line: Specify hGLP1R B-Arrestin2 % Top for YXEGTXTSDYSILLDKKAQXAFIEYLIEGGPSSG (Aib2, αMeF(2F)6, K17 conjugated to (2-[2-(2-Amino-ethoxy)-ethoxy]-acetyl)2-(γ-Glu)-CO-(CH2)16-CO2H, Aib20, C-terminal amide (NH2)) [Example 302] and stop.
Output line: 98.4

Input line: For the binder XXEGTFTSDYSIXLDKKAQXEFIXYLIEGGPSSGAPPPS (D-Tyr1, Aib2, αMeL13, K17 conjugated to (2-[2-(2-Amino-ethoxy)-ethoxy]-acetyl)2-(γ-Glu)-CO-(CH2)18-CO2H, Aib20, D-Glu24, C-terminal amide (NH2)) [Example 353] , report hGLP1R B-Arrestin2 % Top.
Output line: 23
